- test: High-throughput drug toxicity screening in the BPDCN cell line Gen2.2 (AID 1224824);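 note: cells exposed to compounds for 48 h before reading; 100% = DMSO and 0% = bortezomib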
- particulars: Gen2.2 BPDCN cells; at 45.8 µM (top of the series) unless noted
The threshold is 80%. Values of cell viability, % of control (lower = more cytotoxic) beneath it are tagged yes (1); values meeting or exceeding it are tagged no (0).

compound: Clc1ccc(COC(Cn2ccnc2)c2ccc(Cl)cc2Cl)cc1 (centres undefined)
class: no (0)

compound: C[C@H](NC(=O)C(=O)Nc1ccccc1C(C)(C)C)C(=O)N[C@@H](CC(=O)O)C(=O)COc1c(F)c(F)cc(F)c1F
class: no (0)

compound: O=C(Nc1ccccc1Br)N[C@@H]1CCN(c2ccc(C(F)(F)F)cn2)C1
class: no (0)

compound: CC(C(=O)O)c1ccc(-c2ccccc2)c(F)c1 (centres undefined)
class: no (0)

compound: CC(C)[C@H](CO)Nc1nc(Nc2ccc(C(=O)O)c(Cl)c2)c2ncn(C(C)C)c2n1
class: yes (1)

compound: Oc1ccc(C2CCN(c3ccnc4ccccc34)CC2)cc1O
class: yes (1)

compound: CC(=O)O[C@]1(C(C)=O)CC[C@@H]2[C@@H]3C[C@H](C)C4=CC(=O)CC[C@]4(C)[C@H]3CC[C@@]21C
class: yes (1)

compound: CN1[C@@H]2CCC[C@@H]1CC(NC(=O)c1nn(C)c3ccccc13)C2 (some centres undefined)
class: no (0)

compound: CC(C)C[C@H](CC(=O)O)C(=O)N[C@@H](Cc1c[nH]c2ccccc12)C(=O)N[C@@H](C)c1ccccc1
class: no (0)

###

- test: A High-Content qHTS Against Drug Library for the Identification of Small Molecules that Inhibit DYT1 Early Onset Primary Dystonia-Associated Cell Pathology (AID 1645839)
- particulars: HEK293 Flp-In EGFP-delE TorsinA, punctate imaging, 48 h; series mostly up to 46.1 µM
Results filed as inconclusive are left out. Active and inactive are the calls of the source. Calls come from the whole dose curve.
Outcomes: t (active), f (inactive)

compound: CC[C@]1(O)C[C@@H]2CN(CCc3c([nH]c4ccccc34)[C@@](C(=O)OC)(c3cc4c(cc3OC)N(C)[C@H]3[C@@](O)(C(=O)OC)[C@H](OC(C)=O)[C@]5(CC)C=CCN6CC[C@]43[C@@H]65)C2)C1
class: f
//
compound: Clc1ccc(Cn2c(CN3CCCC3)nc3ccccc32)cc1
class: f
//
compound: O=C(O)CCc1nc(-c2ccccc2)c(-c2ccccc2)o1
class: f
//
compound: CCN(CC)C(=O)c1ccc(O)c(OC)c1
class: f
//
compound: NC(N)=Nc1nc(CSCC/C(N)=N/S(N)(=O)=O)cs1
class: f
//
compound: CN1C[C@H]2c3ccccc3Oc3ccc(Cl)cc3[C@@H]2C1
class: t
//
compound: Cc1cccc(C)c1OCC(C)N (stereo not given)
class: f
//
compound: COc1ccc2cccc(CCNC(C)=O)c2c1
class: f
//
compound: O=c1[nH]cnc2c1ncn2[C@H]1CC[C@@H](CO)O1
class: f
//
compound: CC(=O)O[C@]1(C(C)=O)CC[C@H]2[C@@H]3C=C(Cl)C4=CC(=O)[C@@H]5C[C@@H]5[C@]4(C)[C@H]3CC[C@@]21C
class: f

###

- test: Quantitative High-Throughput drug screen in 47 multiple myeloma cell lines against the NCATS MIPE library collection: KMS12PE_JCRB cell viability assay (AID 1918972); note: potency is the fitted concentration of half-maximal effect; nearly all actives have a fitted effect of over 30% in size
- particulars: KMS12PE myeloma viability, CellTiter-Glo ATP, 48 h; series mostly up to 45.8 µM
Results filed as inconclusive are left out. Calls of active or inactive are those of the source. The call rests on the fitted dose curve; in most records, active means well fitted cell-killing curve with a large enough effect; inconclusive means small, poorly fitted or top-dose-only effect, or effect the other way; inactive means no such curve, though single readings can be large or run the other way.
quantity: Potency

smiles: Cc1ccc(Nc2cc(-c3cccc(N4C(=O)c5ccccc5C4=O)c3)ncn2)cc1NS(C)(=O)=O
quantity: Potency
test_result: 26.4 µM (active)

smiles: Cc1cccc(Nc2nc(-c3ccncc3)cs2)c1
quantity: Potency
test_result: 14.8 µM (active)

smiles: Cn1c(N2CCCCS2(=O)=O)nc(C(=O)NCc2ccc(F)cc2)c(O)c1=O
quantity: Potency
test_result: 20.9 µM (active)

###

- test: qHTS of pediatric cancer cell lines to identify multiple opportunities for drug repurposing: Primary screen for NB1643 cells (AID 1347099); note: nearly all actives have a fitted effect of over 50% in size
- particulars: NB1643 neuroblastoma viability, CellTiter-Glo luminescence, 48 h; series mostly up to 46 µM
- Experimental: Drug repurposing or repositioning has been offered as a strategy for drug development in oncology programs. This approach has special potential for childhood cancers and other rare or orphan diseases, where the expected return on new drug development has been a disincentive to pharmaceuticals. […] We employed a titration-based paradigm (quantitative high-throughput screening or qHTS), where all compounds were tested at multiple concentrations for their effect on cell viability. […]
Results filed as inconclusive are left out. Activity calls are given as the source filed them. The call rests on the fitted dose curve; in most records, active means well fitted cell-killing curve with a large enough effect; inconclusive means small, poorly fitted or top-dose-only effect; inactive means no such curve, though single readings can be large or run the other way.
Outcomes: active, inactive

compound: Cc1cccc(Nc2nc(-c3ccncc3)cs2)c1
class: inactive
--
compound: OC[C@@H](O)[C@H](O)[C@H](O)[C@@H](O)CO
class: inactive
--
compound: CCN(CC)CCOC(=O)c1ccc(N)cc1
class: inactive
--
compound: COc1cccc([C@@H](C)NCCCc2ccccc2Cl)c1
class: active
--
compound: O=C(O)C=Cc1ccc(O)c(O)c1
class: active
--
compound: CCc1ccc(OCc2ccccc2C(=O)Nc2ccc3nc(C)cc(N)c3c2)cc1
class: active
--
compound: Cc1cccc(C)c1OCC(C)N (stereo unspecified)
class: inactive
--
compound: COC1CCC(N(C(=O)C2CCC(C)CC2)c2cc(C3=CCCCC3)sc2C(=O)O)CC1 (stereo unspecified)
class: active
--
compound: CNC(=O)c1ccc2cc(C3(O)CCn4cncc43)ccc2c1 (stereo unspecified)
class: inactive
--
compound: O=c1cc(N2CCOCC2)oc2c(-c3cccc4c3sc3ccccc34)cccc12
class: active
--
compound: CCOC(=O)C1=C(N)Oc2ccc(Br)cc2C1C(C#N)C(=O)OCC (stereo unspecified)
class: active
--
compound: CN[C@@H](C)C(=O)N[C@H]1CN(C(=O)CC(C)C)CC[C@H]2CC[C@@H](C(=O)NC(c3ccccc3)c3ccccc3)N2C1=O
class: inactive
--
compound: N#CC1(c2ccc(NC(=O)c3cccnc3NCc3ccncc3)cc2)CCCC1
class: inactive
--
compound: CN1C[C@H]2c3ccccc3Oc3ccc(Cl)cc3[C@@H]2C1
class: inactive
--
compound: O=C(O)C(O)Cc1ccc(O)c(O)c1 (stereo unspecified)
class: inactive
--
compound: O=C(O)CCc1nc(-c2ccccc2)c(-c2ccccc2)o1
class: inactive
--
compound: COC[C@@H](c1ccc(C(F)(F)F)cc1)N1CCN(C2(C)CCN(C(=O)c3c(C)ncnc3C)CC2)C[C@H]1C
class: active
--
compound: CCCNC(=O)NS(=O)(=O)c1ccc(Cl)cc1
class: inactive
--
compound: NC(=O)c1cccc(-c2cc(Nc3ccc(OC(F)(F)F)cc3)ncn2)c1
class: inactive
--
compound: CC[C@]1(O)C[C@@H]2CN(CCc3c([nH]c4ccccc34)[C@@](C(=O)OC)(c3cc4c(cc3OC)N(C)[C@H]3[C@@](O)(C(=O)OC)[C@H](OC(C)=O)[C@]5(CC)C=CCN6CC[C@]43[C@@H]65)C2)C1
class: active
--
compound: COc1cc2c(cc1OC)CN(CCc1ccc(NC(=O)c3cc(OC)c(OC)cc3NC(=O)c3cnc4ccccc4c3)cc1)CC2
class: active

###

- test: S16 Schwann cell viability assay (CellTiter-Glo assay) (AID 624031); note: nearly all actives have a fitted effect of over 70% in size
- particulars: S16 rat Schwann cells viability, 24 h; series mostly up to 57.5 µM
Results filed as inconclusive are left out. The source made the active and inactive calls. The call rests on the fitted dose curve; in most records, active means well fitted cell-killing curve with a large enough effect; inconclusive means small, poorly fitted or top-dose-only effect, or effect the other way; inactive means flat fitted curve, though single readings scatter.
Outcomes: active, inactive

smiles: O=C1NC(=O)C(c2ccccc2)(c2ccccc2)N1
class: inactive

smiles: CC/C(=C(\c1ccccc1)c1ccc(OCCN(C)C)cc1)c1ccccc1
class: active

smiles: O=C1NCC2(CCN(CCc3ccccc3)CC2)O1
class: inactive

smiles: CCCNC(=O)NS(=O)(=O)c1ccc(Cl)cc1
class: inactive

smiles: CC(C)OC(=O)C(C)(C)Oc1ccc(C(=O)c2ccc(Cl)cc2)cc1
class: inactive

smiles: C[N+](C)(C)CCCCCC[N+](C)(C)C
class: inactive

smiles: O=C(O)CCc1nc(-c2ccccc2)c(-c2ccccc2)o1
class: inactive

###

- test: qHTS of pediatric cancer cell lines to identify multiple opportunities for drug repurposing: Primary screen for LAN-5 cells (AID 1347100)
- particulars: LAN-5 neuroblastoma viability, CellTiter-Glo luminescence, 48 h; series mostly up to 46 µM
Inconclusive results are not listed. The source made the active and inactive calls. Calls follow the shape of the dose curve; as a rule, active = well fitted cell-killing curve with a large enough effect; inconclusive = small, poorly fitted or top-dose-only effect; inactive = no such curve, though single readings can be large or run the other way.
Outcomes: label 1 (active), label 0 (inactive)

compound: OC[C@@H](O)[C@H](O)[C@H](O)[C@@H](O)CO
class: label 0
--
compound: O=C1NC(=O)C(=Cc2ccc(-c3ccc(F)cc3)o2)S1
class: label 0
--
compound: CC1(C)O[C@H]2C[C@@H]3[C@H]4CCC5=CC(=O)C=C[C@]5(C)[C@@]4(F)[C@@H](O)C[C@]3(C)[C@]2(C(=O)CO)O1
class: label 1
--
compound: C=C1C(=O)[C@@]23C(CC[C@@H]1[C@H]2O)[C@@]12CO[C@]3(O)[C@@H](O)[C@@H]1C(C)(C)CC[C@@H]2O (stereo not given in full)
class: label 1
--
compound: CC(=O)N[C@@H](CS)C(=O)O
class: label 0
